# system_name: T1, Sla1-3, P32790
# T1 sequence (P32790 344-424, looked up): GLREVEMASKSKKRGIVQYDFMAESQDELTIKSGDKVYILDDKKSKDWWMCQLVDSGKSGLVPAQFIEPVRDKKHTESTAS
# run_description: SPOT array
# recorded_conditions: median of control spots 5475
reported_metric: SPOT intensity

Worked examples, 2 binders total:
**Query** Name the recorded SPOT intensity for `DFTLPPPPPPPGLDE` .
**Result** 0

**Query** Bench note: what SPOT intensity did `NPNRRAPRRPLSTQH` show?
**Result** 607

[I] SSTPTTPERPKRKSG
[II] VGFRLALKFPSRITG
**Query** Which numeric SPOT intensity is bigger, that of I or that of II ? Lab note: record the label of whichever item you select.
**Result** II
(II: 124, I: 0)

Data provenance: paper PMC2756588
